target: GIPC2, Q8TF65; experiment: holdup assay; parameters: key: below the threshold = too weak to quantify, mostly under pKd 3.1 to 4; conditions: plain residues with an end cap or a label only (N-terminal biotin on a linker: ahx)
Sequence (Q8TF65 112-203): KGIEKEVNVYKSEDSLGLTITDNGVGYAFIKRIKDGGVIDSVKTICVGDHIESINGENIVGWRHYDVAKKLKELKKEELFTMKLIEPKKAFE
Property Name: pKd

INSERT INTO results (binder, value_reported) VALUES
  ('RRRKRKRTYL [HPV49-L2, P36762]', 'below the threshold'),
  ('TVICWPGSLV [LNX2, Q8N448]', 'below the threshold'),
  ('SDSSGQEYSL [KCTD3, Q9Y597]', 3.64),
  ('LSDPSVSTVV [GRIN1, Q05586;Q05586-2]', 'below the threshold'),
  ('ESLLLGPSNF [SHROOM4, Q9ULL8]', 'below the threshold'),
  ('GYDWGPATDL [TJP3, O95049]', 3.73),
  ('RAVEEEESRF [PSCDBP, O60759]', 'below the threshold'),
  ('PSASCAVTAA [PDLIM4, P50479;P50479-2]', 'below the threshold'),
  ('NRKREIFSNF [NHERF2, Q15599]', 'below the threshold'),
  ('HNAFLSVTTV [PDZRN4, Q6ZMN7]', 'below the threshold');
